# Target entity: E. coli ribose-binding protein (ecRBP) (Escherichia coli, UniProt P02925, L86C/T28W)
# Sequence (P02925 other isoform, or with tags, fused parts or gaps T28W/L86C): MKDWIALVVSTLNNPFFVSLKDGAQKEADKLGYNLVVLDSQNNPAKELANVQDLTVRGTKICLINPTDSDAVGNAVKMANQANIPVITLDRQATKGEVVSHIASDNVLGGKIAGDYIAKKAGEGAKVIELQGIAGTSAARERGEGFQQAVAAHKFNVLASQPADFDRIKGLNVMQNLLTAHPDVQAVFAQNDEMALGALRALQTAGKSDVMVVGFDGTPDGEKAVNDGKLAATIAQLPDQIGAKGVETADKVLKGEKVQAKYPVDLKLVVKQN
# Assay summary: biochemical
Observation type: Kd (nM)
Numbers only, in nM.

Tested on E. coli ribose-binding protein (ecRBP) (Escherichia coli, UniProt P02925, L86C/T28W), the item O=C[C@H](O)[C@H](O)[C@H](O)CO [ribose, reference compound] showed Kd equal to 2800
